study-target: UniProt Q13547
Sequence (Q13547 whole entry): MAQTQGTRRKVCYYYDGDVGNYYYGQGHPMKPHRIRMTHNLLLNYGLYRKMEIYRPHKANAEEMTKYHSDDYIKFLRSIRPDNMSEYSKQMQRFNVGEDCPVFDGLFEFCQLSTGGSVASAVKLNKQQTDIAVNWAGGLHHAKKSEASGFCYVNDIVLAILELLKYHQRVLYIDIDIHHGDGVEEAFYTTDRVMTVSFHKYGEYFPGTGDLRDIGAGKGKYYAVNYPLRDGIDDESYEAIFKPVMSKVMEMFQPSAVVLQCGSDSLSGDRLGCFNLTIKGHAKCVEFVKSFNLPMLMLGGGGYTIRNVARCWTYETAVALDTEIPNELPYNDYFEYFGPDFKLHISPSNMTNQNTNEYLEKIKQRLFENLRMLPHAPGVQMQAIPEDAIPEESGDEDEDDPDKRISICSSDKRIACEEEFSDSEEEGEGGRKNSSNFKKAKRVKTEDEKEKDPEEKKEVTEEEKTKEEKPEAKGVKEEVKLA
experiment-notes: In vitro HDAC inhibitory assay, recombinant HDAC1
experimental-readout: pIC50
Note on pIC50: it is the negative log10 of concentration, concentration in mol/L.

(Q) Provide measured pIC50 value, entry: CCCCNNC(=O)c1ccc(N2CCN(C(=O)c3cc(-c4ccc(-c5ccccc5)cc4)nc4ccccc34)CC2)cc1 [Compound D30]
(A) 5.85

(Q) Determine its reported pIC50: CCCNNC(=O)c1ccc(N2CCN(C(=O)c3cc(-c4ccc(-c5ccccc5)cc4)nc4ccccc34)CC2)cc1 [Compound D29]
(A) 4.49

====

Assign melting point to each entry below.

(Q) Give melting point for the following molecule: O=C(NO)c1ccc(N2CCN(C(=O)c3cc(-c4ccc(NC(=O)c5ccccc5)cc4)nc4ccccc34)CC2)cc1 [Compound D19]
(A) 173.9 to 174.8 °C

(Q) For the molecule CCCCNNC(=O)c1ccc(N2CCN(C(=O)c3cc(-c4ccc(-c5ccccc5)cc4)nc4ccccc34)CC2)cc1 [Compound D30] , give its measured melting point value.
(A) 225.3 to 227.3 °C

(Q) Note down melting point recorded for O=C(NO)c1ccc(N2CCN(C(=O)c3cc(-c4ccc(Br)cc4)nc4ccccc34)CC2)cc1 [Compound D2]
(A) 231.7 to 232.8 °C

(Q) Note melting point for the molecule shown: O=C(NO)c1ccc(N2CCN(C(=O)c3cc(-c4ccccc4Cl)nc4ccccc34)CC2)cc1 [Compound D14]
(A) 235 to 236.4 °C

(Q) Given the molecule O=C(NO)c1ccc(N2CCN(C(=O)c3cc(-c4cccc(Cl)c4)nc4ccccc34)CC2)cc1 [Compound D8] , write its reported melting point.
(A) 207.1 to 208.9 °C

The reported measurements were obtained from paper PMC9333195.
